Where do these numbers come from? They come from ChEMBL document CHEMBL4118160.

# EXPERIMENTAL_TARGET: Integrin alpha-V/beta-3 (Homo sapiens, UniProt P05106+P06756)
# Sequence (P05106 27-788 limits assumed): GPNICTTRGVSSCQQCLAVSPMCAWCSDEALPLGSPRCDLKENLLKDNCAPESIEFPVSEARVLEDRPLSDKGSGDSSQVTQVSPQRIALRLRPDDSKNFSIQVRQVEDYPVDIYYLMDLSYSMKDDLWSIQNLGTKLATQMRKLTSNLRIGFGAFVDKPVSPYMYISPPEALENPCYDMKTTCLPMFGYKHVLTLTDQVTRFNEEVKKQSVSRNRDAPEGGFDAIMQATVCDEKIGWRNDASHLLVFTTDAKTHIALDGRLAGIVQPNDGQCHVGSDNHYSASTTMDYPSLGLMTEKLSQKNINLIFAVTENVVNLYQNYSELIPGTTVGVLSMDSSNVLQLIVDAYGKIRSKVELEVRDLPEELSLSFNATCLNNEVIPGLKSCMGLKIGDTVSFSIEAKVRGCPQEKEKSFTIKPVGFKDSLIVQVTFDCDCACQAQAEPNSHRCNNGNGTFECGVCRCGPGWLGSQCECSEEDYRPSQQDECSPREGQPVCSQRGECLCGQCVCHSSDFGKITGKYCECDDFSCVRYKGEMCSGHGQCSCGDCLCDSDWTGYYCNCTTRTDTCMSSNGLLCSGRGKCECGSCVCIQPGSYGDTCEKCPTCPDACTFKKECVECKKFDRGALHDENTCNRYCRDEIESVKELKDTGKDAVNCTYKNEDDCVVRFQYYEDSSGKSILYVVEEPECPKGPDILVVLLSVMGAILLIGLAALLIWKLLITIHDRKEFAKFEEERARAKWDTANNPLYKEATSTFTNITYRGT
# Sequence (P06756 31-889 limits assumed): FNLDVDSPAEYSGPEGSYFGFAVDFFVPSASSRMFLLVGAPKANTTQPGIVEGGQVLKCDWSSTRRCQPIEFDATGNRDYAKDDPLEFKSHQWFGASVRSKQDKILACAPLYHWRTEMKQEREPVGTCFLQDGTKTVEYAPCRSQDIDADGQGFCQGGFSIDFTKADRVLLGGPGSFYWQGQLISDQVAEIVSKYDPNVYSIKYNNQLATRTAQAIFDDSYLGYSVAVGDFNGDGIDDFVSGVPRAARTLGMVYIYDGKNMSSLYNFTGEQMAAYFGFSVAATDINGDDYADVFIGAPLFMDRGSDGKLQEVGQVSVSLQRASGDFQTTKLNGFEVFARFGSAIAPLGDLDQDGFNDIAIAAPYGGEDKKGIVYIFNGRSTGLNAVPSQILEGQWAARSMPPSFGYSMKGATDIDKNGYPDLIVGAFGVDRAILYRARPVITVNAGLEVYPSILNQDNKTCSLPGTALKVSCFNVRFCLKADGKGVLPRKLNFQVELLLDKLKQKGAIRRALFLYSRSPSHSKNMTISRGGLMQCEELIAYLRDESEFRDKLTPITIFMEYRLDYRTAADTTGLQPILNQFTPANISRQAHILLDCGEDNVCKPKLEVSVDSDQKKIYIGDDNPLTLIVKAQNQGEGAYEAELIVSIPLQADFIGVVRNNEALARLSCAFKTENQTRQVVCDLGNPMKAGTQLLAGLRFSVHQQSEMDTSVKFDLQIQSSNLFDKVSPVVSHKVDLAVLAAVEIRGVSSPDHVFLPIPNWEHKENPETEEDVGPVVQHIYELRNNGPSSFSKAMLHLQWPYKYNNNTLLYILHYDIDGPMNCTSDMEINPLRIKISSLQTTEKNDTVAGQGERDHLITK
# Sequence (P06756 891-1048 limits assumed): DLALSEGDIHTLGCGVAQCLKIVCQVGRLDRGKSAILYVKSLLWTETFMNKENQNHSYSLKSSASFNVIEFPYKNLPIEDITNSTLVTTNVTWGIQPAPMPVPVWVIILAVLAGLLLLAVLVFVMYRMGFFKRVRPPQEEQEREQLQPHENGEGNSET
# ASSAY_EXPLANATION: Inhibition of vitronectin binding to alphaVbeta3 integrin (unknown origin) measured after 3 hrs
pIC50: −log10 of the molar value.

>  <SMILES_ENTRY>
N=C(N)NCCC[C@H]1NC(=O)CNC(=O)[C@@H](CC(=O)O)CN[C@@H]2O[C@H](C1=O)[C@@H](OCc1ccccc1)[C@H](OCc1ccccc1)[C@H]2OCc1ccccc1

>  <pIC50>
≥ 6.82

$$$$
>  <SMILES_ENTRY>
N=C(N)NCCC[C@H]1NC(=O)CNC(=O)[C@@H](CC(=O)O)CN[C@H]2O[C@H](C1=O)[C@@H](OCc1ccccc1)[C@H](OCc1ccccc1)[C@H]2OCc1ccccc1

>  <pIC50>
≥ 6.82

$$$$
